# Target under test: Nuclear receptor subfamily 4 group A member 2 (Homo sapiens)
# Protocol text: ATG_NURR1_TRANS: Attagene TRANS-FACTORIAL HepG2 Assay for human Nuclear Receptor Related Protein 1 (NURR1) (AID 2282985)
# Run conditions: HepG2 Attagene TRANS reporter, mRNA readout
Results filed as inconclusive are left out. Calls of active or inactive are those of the source. The calls were made as follows: active = hit-call score of the fitted dose curve at least 0.9, where 1 is the maximum; inconclusive = response in the unintended direction; inactive = score below 0.9.
Quantity kind: outcome

INSERT INTO results (compound, val) VALUES
  ('O=C1OC2(c3cc(Br)c(O)c(Br)c3Oc3c2cc(Br)c(O)c3Br)c2c(Cl)c(Cl)c(Cl)c(Cl)c21', 'inactive'),
  ('CC1CCC(C(C)(C)O)CC1 (stereo unspecified)', 'inactive'),
  ('Cc1ccc2ccccc2n1', 'inactive'),
  ('NC(N)=NC(=O)c1nc(Cl)c(N)nc1N', 'inactive'),
  ('CC(CN1c2ccccc2Sc2ccccc21)N(C)C (stereo unspecified)', 'inactive');

Ask: Would you kindly share the measured outcome for Nc1cc([N+](=O)[O-])ccc1O ?
Reply: inactive

Ask: Please give the measured outcome for this compound: c1ccc2sc(SN(C3CCCCC3)C3CCCCC3)nc2c1
Reply: inactive

Ask: Item Cc1ccc(C(C)C)cc1O has what recorded outcome?
Reply: inactive

Ask: Fill blank: measured outcome of the compound COc1ccnc(CS(=O)c2nc3cc(OC(F)F)ccc3[nH]2)c1OC (stereo unspecified) is ____.
Reply: inactive

Ask: # lookup: outcome of CCCC1CCC(=O)O1 (stereo unspecified)
Reply: inactive

Ask: Name the reported outcome value associated with the compound C=C(C)C(=O)O[C@H]1C[C@@H]2CC[C@@]1(C)C2(C)C
Reply: inactive

Ask: What does the record list as outcome for CC(C)c1cccc(O)c1 ?
Reply: inactive

Ask: Name the reported outcome value associated with the compound COc1ccc(NC(=O)CC(C)=O)cc1
Reply: inactive
